- TEST PROTOCOL: In vivo PK study in beagle dogs
- ASSAY CONTEXT: dog, plasma, oral; male beagle dogs, 1 mg/kg intravenously / 3 mg/kg orally; read-out: F % (oral bioavailability)
READOUT NAME: bioavailability (%)
State the answer as a number, implicitly in %.

Input: Given the compound Cc1cccc(CN2C(=O)c3nc(-c4nc(Nc5ccnn5C)ncc4C)sc3C2(C)C)n1 , what is its reported bioavailability?
Output: 52

* * *

- TEST PROTOCOL: In vivo PK study in beagle dogs
- ASSAY CONTEXT: dog, plasma, iv; male beagle dogs, 1 mg/kg intravenously
READOUT NAME: clearance (mL/min/kg)
State the answer as a number, implicitly in mL/min/kg.

Input: Given the molecule Cc1cccc(CN2C(=O)c3nc(-c4nc(Nc5ccnn5C)ncc4C)sc3C2(C)C)n1 , what is its reported clearance?
Output: 19
